Tested on: Escherichia coli
Assay: Antimicrobial activity against Escherichia coli after 24 hrs by microdilution method
Type: functional
readoutType: MIC (µg/mL)
# output: bare number, implied unit µg/mL

{"compound": "CC(C)CC(=O)OC(c1ccccc1)c1cc(O)c(C(=O)O)c(=O)[nH]1 (racemic)", "MIC / µg/mL": 50}

[in] Give its MIC value. Item: `CC(C)CC(=O)O[C@@H](c1ccccc1)c1cc(O)c(C(=O)O)c(=O)[nH]1`
[out] 25

[in] Moving on to `NCC[C@H](O)C(=O)N[C@@H]1C[C@H](N)[C@@H](O[C@H]2O[C@H](CN)[C@@H](O)[C@H](O)[C@H]2O)[C@H](O)[C@H]1O[C@H]1O[C@H](CO)[C@@H](O)[C@H](N)[C@H]1O`
[out] 6

[in] Moving on to `CC(C)CC(=O)O[C@H](c1ccccc1)c1cc(O)c(C(=O)O)c(=O)[nH]1`
[out] 50
